# test.description: Toxicity liver stage against HepG2, at 10uM
# Assay type: cell-based
# Design: test concentration 10 uM, cell line HepG2-A16-CD81EGFP
# run.parameters: human, HepG2-A16-CD81EGFP cells; read-out: INHIBITION
measured.metric: cytotoxicity at 10 µM (%)
Lab book: enter the figure in %, no units written.

Field: example entries. Status: answers known.
compound=Nc1cnc(-c2ccc(F)cc2Cl)cn1 units_symbol=% reported_value=-136
compound=CNc1nc(C)c(C(=O)NCC(C)(C)N2CCCCC2)s1 units_symbol=% reported_value=2.79
compound=O=C(O)c1cc(S(=O)(=O)Nc2cc(F)cc(F)c2)cc2c1OCCO2 units_symbol=% reported_value=-12.6
compound=Cc1nccc(-c2cccc(NCC(=O)N3CCOCC3)c2)n1 units_symbol=% reported_value=-0.269

Answer with the recorded cytotoxicity at 10 µM of Cc1cc(CN2CC3(CCN(C(=O)C4CC4)CC3)CC2C(=O)O)oc1C (centres undefined) only.
1.1

Query cytotoxicity at 10 µM for Cn1c2c(c(=O)c3ccccc31)CCC(C)(C)O2
2.76

Return the recorded cytotoxicity at 10 µM value; entry: Cc1ccnc(C(NC(=O)c2ncoc2C)C2CC2)n1 (centres undefined)
12.7

Give reported cytotoxicity at 10 µM value for CN1CCC(NC(=O)C2CN(c3cncnc3)CCO2)CC1 (centres undefined)
-32.5

Give reported cytotoxicity at 10 µM value for Cc1cc(CN2CCN(C(=O)Cc3ccccc3F)CC2)on1
-4.02

Please give measured cytotoxicity at 10 µM of the following entry: O=C(NCC1CCCOC1)c1ccc(-c2ccccc2)[nH]c1=O (centres undefined)
-12.2

Note cytotoxicity at 10 µM for the compound shown: Nc1ncc(CN2CCC(O)(c3ccccc3F)CC2)cn1
1

// Input: CCC(CNS(=O)(=O)c1c[nH]cn1)Oc1ccccc1F (centres undefined) . Output its cytotoxicity at 10 µM only.
7.22

====

# test.description: Toxicity liver stage against HepG2, at 10uM
# Format: cell-based
# Design: test concentration 10 uM, cell line HepG2-A16-CD81EGFP
# run.parameters: human, HepG2-A16-CD81EGFP cells; read-out: INHIBITION
cytotoxicity at 10 µM values, listed per item
Give a bare numeral; the unit % is implied.

compound=O=C(c1cnc2ccc(F)cc2c1NCc1ccco1)N1CCCC1 reported_value=-54.5
compound=Cc1cccc(OC2CCN(S(=O)(=O)Cc3cccc(F)c3)CC2)n1 reported_value=-7.79

Please report cytotoxicity at 10 µM for the following compound: CNC(=O)c1cc2c(nc1N(C)C)CCN(S(=O)(=O)N(C)C)CC2
-138

Please report cytotoxicity at 10 µM for the following compound: CSc1ccsc1C(=O)N1CCN(CC(C)(C)O)CC1
-3.22

In one line, give reported cytotoxicity at 10 µM of the entry CC(C)N(CC(N)=O)C(=O)CCC(=O)c1ccc(F)cc1F .
0.529

Output measured cytotoxicity at 10 µM for this item: O=C(CN1CCCC1Cn1cncn1)NCCOc1ccccc1 (stereo not drawn)
-7.52

Give the measured cytotoxicity at 10 µM for CC(=O)N1CCN(Cc2ccc3c(c2)OCCO3)CC(O)C1 (stereo not drawn)
4.14

Fill in cytotoxicity at 10 µM for record c1cnc(NCc2noc3c2CN(C2CCOCC2)CC3)nc1
-6.23

For the compound COCC(=O)N1CCC2(CC1)CN(S(C)(=O)=O)Cc1ccccc1O2 , report cytotoxicity at 10 µM.
7.3

Give cytotoxicity at 10 µM for Cc1nnc(N2CCCC(C(=O)c3cccc(Cl)c3)C2)o1 (stereo not drawn)
6.14

====

# test.description: Toxicity liver stage against HepG2, at 10uM
# Type: cell-based
# Parameters: test concentration 10 uM, cell line HepG2-A16-CD81EGFP
# run.parameters: human, HepG2-A16-CD81EGFP cells; read-out: INHIBITION
Item-by-item account of cytotoxicity at 10 µM
Please give the number followed by its unit.

compound=CN1CC[C@]2(CN(CC3CC3)C[C@H]2c2ccccc2)C1=O reported_value=3.15%

Tell us which cytotoxicity at 10 µM value is on record for Cc1nc(C)n(CC2CN(Cc3noc(C4CC4)n3)CCO2)n1 (stereo not drawn)
-8.15%

Please indicate cytotoxicity at 10 µM recorded for CCc1nc(CN(C)C2CCCN(c3cccnn3)C2)no1 (stereo not drawn)
-5.87%

Indicate the recorded cytotoxicity at 10 µM value for this compound: CCOc1cccc2c1OCC(C(=O)NS(=O)(=O)c1cccs1)=C2
-2.97%

Give reported cytotoxicity at 10 µM value for CC(C)NC(=O)c1ccc2nnc(C3CN(C)CCN3C)n2c1 (stereo not drawn)
-139%

# return recorded cytotoxicity at 10 µM for input Cc1nccn1C1CCCN(C(=O)CCOCC(F)(F)F)C1 (stereo not drawn)
-11.4%

Could you please provide reported cytotoxicity at 10 µM for CC(C)C(C(=O)N1CCCN(Cc2nccn2C)CC1)N1CCCC1 (stereo not drawn) ? Thanks!
-13%

Note down cytotoxicity at 10 µM recorded for CC(C)c1nc(C2CCCN(C(=O)CCn3cncn3)C2)no1 (stereo not drawn)
-21.1%

Note cytotoxicity at 10 µM for the compound shown: N#Cc1ccc(C(=O)N2CCC(Oc3ccc(C#N)cn3)CC2)cc1
7.92%

Identify measured cytotoxicity at 10 µM corresponding to Cc1nccn1-c1cccc(C2CCCN(C3CCCCC3)C2)n1 (stereo not drawn)
-2.65%

Supply reported cytotoxicity at 10 µM belonging to this compound: CC(C)(CNC(=O)C1CCCN1S(C)(=O)=O)N1CCOCC1 (stereo not drawn)
2.72%

Give the reported cytotoxicity at 10 µM for this compound. COc1cccc(CN2CCCC(c3nn(C)c4nccnc34)C2)c1 (stereo not drawn)
-11.2%

In one line, give reported cytotoxicity at 10 µM of the entry CSc1ccc(-n2nnc(C(=O)O)c2-c2ccccn2)cc1 .
-3.01%

Kindly indicate its recorded cytotoxicity at 10 µM. Item: Cc1cnn(CC2CCCN2C(=O)c2cc(O)nc3ccccc23)c1 (stereo not drawn)
-6.5%

Could you please provide reported cytotoxicity at 10 µM for CCN1CC[C@]2(CN(C(=O)[C@H]3CCCO3)C[C@H]2c2ccccc2)C1=O ? Thanks!
5.98%

Consider the compound CCN(C(=O)c1ccc2nncn2c1)C(C)Cc1ccc(OC)cc1 (stereo not drawn) . State its measured cytotoxicity at 10 µM.
-5.53%

Report measured cytotoxicity at 10 µM; entry is CC(C)NC(=O)C(C(C)C)n1cnc2cc(F)c(F)cc21 (stereo not drawn)
12.5%

====

# test.description: Toxicity liver stage against HepG2, at 10uM
# Assay type: cell-based
# Design: test concentration 10 uM, cell line HepG2-A16-CD81EGFP
# run.parameters: human, HepG2-A16-CD81EGFP cells; read-out: INHIBITION
# reported cytotoxicity at 10 µM; entries follow
Number only, in %; omit the unit.

In the examples that follow, each entry is paired with its recorded cytotoxicity at 10 µM.
molecule=N#CC1(NC(=O)CN2CCc3c(ncn3C3CC3)C2)CCCC1 reported_value=12.1
molecule="CCCC(C)C(=O)N1CCC(n2cccc2C(=O)OC)CC1 (stereo unspecified)" reported_value=-10
molecule="c1coc(CNCC2Cn3nncc3CO2)c1 (stereo unspecified)" reported_value=-92.5

For the molecule CN1CC(=O)N(c2cccc(F)c2)CC12CCN(Cc1ccncc1)C2 (stereo unspecified) , report cytotoxicity at 10 µM.
5.69

Report measured cytotoxicity at 10 µM; entry is N#CC1COCCN1S(=O)(=O)c1ccc2c(c1)CCC2 (stereo unspecified)
4.53

# return recorded cytotoxicity at 10 µM for entry CCOc1ccc(N2CCCN=C2NC(=O)c2cccc(Cl)c2)cc1
-10.1

====

# test.description: Toxicity liver stage against HepG2, at 10uM
# Type: cell-based
# Set-up: test concentration 10 uM, cell line HepG2-A16-CD81EGFP
# run.parameters: human, HepG2-A16-CD81EGFP cells; read-out: INHIBITION
measured.metric: cytotoxicity at 10 µM (%)
Answer in %, number only, no unit symbol.

compound=CCc1ncnc2c1CCN(Cc1nccs1)CC2 measured_metric="cytotoxicity at 10 µM" units_symbol=% reported_value=6.56
compound="O=C(CC1Cn2ncnc2NC1=O)Nc1ccc(F)c(F)c1 (stereo unspecified)" measured_metric="cytotoxicity at 10 µM" units_symbol=% reported_value=2.02

Using the record for Cn1cc(CCCN2CCN(Cc3cccc(O)c3)CC2)cn1 , state its measured cytotoxicity at 10 µM.
-52.5

# return recorded cytotoxicity at 10 µM for entry CC(C)c1nc(CN2CCOC(Cn3cncn3)C2)no1 (stereo unspecified)
1.01

Note down cytotoxicity at 10 µM recorded for O=C(c1cc[nH]n1)N1CCc2ccc(S(=O)(=O)N3CCOCC3)cc2C1
5.18

State its cytotoxicity at 10 µM: CCn1cc(C(=O)Nc2ccc(C)cc2C(=O)NC)cn1
5.81

====

# test.description: Toxicity liver stage against HepG2, at 10uM
# Assay type: cell-based
# Parameters: test concentration 10 uM, cell line HepG2-A16-CD81EGFP
# run.parameters: human, HepG2-A16-CD81EGFP cells; read-out: INHIBITION
measured.metric: cytotoxicity at 10 µM (%)
Expressed in %, but write only the number.

compound=O=C(NC1CCC1)c1c2c(N3CCCC3)ncnc2n2ccccc12 units_symbol=% reported_value=-82.4
compound=Cc1ccc(-c2cc(CNC(=O)N3CCC(CO)CC3)on2)cc1 units_symbol=% reported_value=-7.69
compound=Cc1ncc(-c2ccnc(N3CC[C@H](O)C3)n2)c(-c2cccnc2)n1 units_symbol=% reported_value=-8.49
compound="CC(=O)N1CC2(CCN(c3nccc4ccccc34)CC2)CC1C(=O)O (stereo unspecified)" units_symbol=% reported_value=4.65
compound="CC1CCCCN1C(=O)c1ccc(Br)s1 (stereo unspecified)" units_symbol=% reported_value=-8.21

Now consider the entry below.
Assign cytotoxicity at 10 µM to the following record: CCC1=N[C@@]2(CC[C@@H]3CN(CC4CC4)C[C@@H]32)C(=O)N1CC1CC1
5.39
